System: A549 cells
test_conditions: human
metric: CC50 (µM)
Numbers only, in µM.

Return CC50 (reported value) for this compound: CC(=O)OCC1OC(OCC2OC(n3ccc(=O)[nH]c3=O)C3OC(C)(C)OC23)CC(OC(C)=O)C1OC(C)=O (stereo not shown)
223

Attribution: paper PMC6471225
